Experiment summary: Stability of substrates and metabolites in quality control samples (benchtop, autosampler, freeze-thaw)
Format: physicochemical
Condition set: QC conc. 60 ng/ml; room temperature for 19 hours
Each entry below carries its recorded Benchtop stability (19 h) Ac. Accuracy (%).

-- ask Need Benchtop stability (19 h) Ac. Accuracy (%), item "O=C1Nc2c(O)cc(Cl)cc2[C@@](C#CC2CC2)(C(F)(F)F)O1"
-- reply 77,52%

-- ask Need Benchtop stability (19 h) Ac. Accuracy (%), item COCCc1ccc(OCC(O)CNC(C)C)cc1 (stereo not drawn) [metoprolol, reference compound]
-- reply 110,41%

-- ask Need Benchtop stability (19 h) Ac. Accuracy (%), item "OCc1ncc2n1-c1ccc(Cl)cc1C(c1ccccc1F)=NC2"
-- reply 105,11%

-- ask Need Benchtop stability (19 h) Ac. Accuracy (%), item COCC(O)c1ccc(OCC(O)CNC(C)C)cc1 (stereo not drawn)
-- reply 95,47%

-- ask Need Benchtop stability (19 h) Ac. Accuracy (%), item COc1ccc2nc([S+]([O-])Cc3ncc(CO)c(OC)c3C)[nH]c2c1 (stereo not drawn)
-- reply 99,68%

-- ask Need Benchtop stability (19 h) Ac. Accuracy (%), item COc1ccc2[nH]c([S+]([O-])Cc3ncc(C)c(OC)c3C)nc2c1 (stereo not drawn) [omeprazol, omeprazole, reference compound]
-- reply 112,32%

----------
Experiment summary: Stability of substrates and metabolites in quality control samples (benchtop, autosampler, freeze-thaw)
Assay type: physicochemical
Condition set: QC conc. 1,5 ng/ml; 10° C for 24 hours in the autosampler
Endpoint: Autosampler stability (24 h) Av. Accuracy (%)

Take a look at these entries with their results.
>>> assay_value("COCCc1ccc(OCC(O)CNC(C)C)cc1 (centres unmarked) [metoprolol, reference compound]")
"112,83%"
>>> assay_value("COCC(O)c1ccc(OCC(O)CNC(C)C)cc1 (centres unmarked) [OH-metoprolol]")
"96,56%"
>>> assay_value("COc1ccc2nc([S+]([O-])Cc3ncc(CO)c(OC)c3C)[nH]c2c1 (centres unmarked) [5-OH-omeprazole]")
"102,58%"
>>> assay_value("COc1ccc2[nH]c([S+]([O-])Cc3ncc(C)c(OC)c3C)nc2c1 (centres unmarked) [omeprazol, omeprazole, reference compound]")
"114,49%"

-- ask Need Autosampler stability (24 h) Av. Accuracy (%), item O=C1Nc2c(O)cc(Cl)cc2[C@@](C#CC2CC2)(C(F)(F)F)O1 [8-OH-efavirenz]
-- reply 88,49%

----------
Each entry below carries its recorded Benchtop stability (19 h) Ac. Accuracy (%).
Experiment summary: Stability of substrates and metabolites in quality control samples (benchtop, autosampler, freeze-thaw)
Assay type: physicochemical
Condition set: QC conc. 0,5 ng/ml; room temperature for 19 hours

Take a look at these entries with their results.
>>> assay_value("O=C1Nc2c(O)cc(Cl)cc2[C@@](C#CC2CC2)(C(F)(F)F)O1")
"74,06%"
>>> assay_value("COc1ccc2[nH]c([S+]([O-])Cc3ncc(C)c(OC)c3C)nc2c1 (centres unmarked) [omeprazol, omeprazole, reference compound]")
"117,42%"
>>> assay_value("COc1ccc2nc([S+]([O-])Cc3ncc(CO)c(OC)c3C)[nH]c2c1 (centres unmarked)")
"95,94%"
>>> assay_value("COCC(O)c1ccc(OCC(O)CNC(C)C)cc1 (centres unmarked)")
"90,1%"

Now let's try a different one.
-- ask Need Benchtop stability (19 h) Ac. Accuracy (%), item COCCc1ccc(OCC(O)CNC(C)C)cc1 (centres unmarked) [metoprolol, reference compound]
-- reply 106,29%

----------
Experiment summary: Stability of substrates and metabolites in quality control samples (benchtop, autosampler, freeze-thaw)
Type: physicochemical
Condition set: QC conc. 0,25 ng/ml; after three freeze-thaw cycles
Endpoint: 3x freeze-thaw Av. Accuracy (%)

>>> assay_value("COCC(O)c1ccc(OCC(O)CNC(C)C)cc1 (centres unmarked) [OH-metoprolol]")
"85,17%"
>>> assay_value("COc1ccc2[nH]c([S+]([O-])Cc3ncc(C)c(OC)c3C)nc2c1 (centres unmarked) [omeprazol, omeprazole, reference compound]")
"112,67%"
>>> assay_value("COc1ccc2nc([S+]([O-])Cc3ncc(CO)c(OC)c3C)[nH]c2c1 (centres unmarked) [5-OH-omeprazole]")
"101,98%"

-- ask Need 3x freeze-thaw Av. Accuracy (%), item COCCc1ccc(OCC(O)CNC(C)C)cc1 (centres unmarked) [metoprolol, reference compound]
-- reply 99,7%

-- ask Need 3x freeze-thaw Av. Accuracy (%), item O=C1Nc2c(O)cc(Cl)cc2[C@@](C#CC2CC2)(C(F)(F)F)O1 [8-OH-efavirenz]
-- reply 84,61%

----------
Experiment summary: Stability of substrates and metabolites in quality control samples (benchtop, autosampler, freeze-thaw)
Type: physicochemical
Condition set: QC conc. 1,5 ng/ml; room temperature for 19 hours
Endpoint: Benchtop stability (19 h) Ac. Accuracy (%)

Take a look at these entries with their results.
>>> assay_value("COCC(O)c1ccc(OCC(O)CNC(C)C)cc1 (centres unmarked)")
"94,57%"
>>> assay_value("COc1ccc2[nH]c([S+]([O-])Cc3ncc(C)c(OC)c3C)nc2c1 (centres unmarked) [omeprazol, omeprazole, reference compound]")
"115,14%"
>>> assay_value("O=C1Nc2c(O)cc(Cl)cc2[C@@](C#CC2CC2)(C(F)(F)F)O1")
"76,61%"
>>> assay_value("COc1ccc2nc([S+]([O-])Cc3ncc(CO)c(OC)c3C)[nH]c2c1 (centres unmarked)")
"98,98%"

Now let's try a different one.
-- ask Need Benchtop stability (19 h) Ac. Accuracy (%), item COCCc1ccc(OCC(O)CNC(C)C)cc1 (centres unmarked) [metoprolol, reference compound]
-- reply 111,4%

----------
Each entry below carries its recorded 3x freeze-thaw Av. Accuracy (%).
Experiment summary: Stability of substrates and metabolites in quality control samples (benchtop, autosampler, freeze-thaw)
Assay type: physicochemical
Condition set: QC conc. 60 ng/ml; after three freeze-thaw cycles

>>> assay_value("COc1ccc2[nH]c([S+]([O-])Cc3ncc(C)c(OC)c3C)nc2c1 (stereo not drawn) [omeprazol, omeprazole, reference compound]")
"106,21%"

-- ask Need 3x freeze-thaw Av. Accuracy (%), item OCc1ncc2n1-c1ccc(Cl)cc1C(c1ccccc1F)=NC2 [1-OH-midazolam]
-- reply 100,47%

-- ask Need 3x freeze-thaw Av. Accuracy (%), item O=C1Nc2c(O)cc(Cl)cc2[C@@](C#CC2CC2)(C(F)(F)F)O1 [8-OH-efavirenz]
-- reply 79,98%
